List of MIC values.
Test system: Trichosporon asahii
Assay: Antifungal activity against Trichosporon asahii 1188 after 24 hrs by microdilution broth method
Format: functional
Conditions: Trichosporon asahii, 1188, 24 h
quantity: MIC (µM)

- compound: "O=C(Nc1cccc(Cl)c1)c1cc([N+](=O)[O-])ccc1O"
  measurementTarget: "Trichosporon asahii"
  quantity: "MIC"
  measurementUnit: "µM"
  resultOperator: ">"
  val: 500
- compound: "O=C(Nc1cccc(Br)c1)c1cc([N+](=O)[O-])ccc1O"
  measurementTarget: "Trichosporon asahii"
  quantity: "MIC"
  measurementUnit: "µM"
  resultOperator: "="
  val: 500
- compound: "O=C(Nc1ccc([N+](=O)[O-])cc1)c1ccc([N+](=O)[O-])cc1O"
  measurementTarget: "Trichosporon asahii"
  quantity: "MIC"
  measurementUnit: "µM"
  resultOperator: ">"
  val: 500
- compound: "O=C(Nc1cccc([N+](=O)[O-])c1)c1ccc([N+](=O)[O-])cc1O"
  measurementTarget: "Trichosporon asahii"
  quantity: "MIC"
  measurementUnit: "µM"
  resultOperator: ">"
  val: 250
- compound: "O=C(Nc1cccc(F)c1)c1cc([N+](=O)[O-])ccc1O"
  measurementTarget: "Trichosporon asahii"
  quantity: "MIC"
  measurementUnit: "µM"
  resultOperator: ">"
  val: 500
- compound: "OC(Cn1cncn1)(Cn1cncn1)c1ccc(F)cc1F [FLUCONAZOLE]"
  measurementTarget: "Trichosporon asahii"
  quantity: "MIC"
  measurementUnit: "µM"
  resultOperator: "="
  val: 250
- compound: "O=C(Nc1ccc(Cl)c(Cl)c1)c1ccc([N+](=O)[O-])cc1O"
  measurementTarget: "Trichosporon asahii"
  quantity: "MIC"
  measurementUnit: "µM"
  resultOperator: "="
  val: 7.81
- compound: "O=C(Nc1cccc(Cl)c1)c1ccc([N+](=O)[O-])cc1O"
  measurementTarget: "Trichosporon asahii"
  quantity: "MIC"
  measurementUnit: "µM"
  resultOperator: "="
  val: 62.5

====

Test system: Escherichia coli
Assay: Antibacterial activity against Escherichia coli CCM4517 after 48 hrs by microdilution broth method
Format: functional
Conditions: CCM4517, 48 h

- querySmiles: "O=C(Nc1ccc([N+](=O)[O-])cc1)c1cc([N+](=O)[O-])ccc1O"
  MIC: "> 500 µM"
- querySmiles: "O=C(Nc1cccc(C(F)(F)F)c1)c1cc([N+](=O)[O-])ccc1O"
  MIC: "> 500 µM"
- querySmiles: "O=C(Nc1ccc([N+](=O)[O-])c(C(F)(F)F)c1)c1cc([N+](=O)[O-])ccc1O"
  MIC: "> 500 µM"
- querySmiles: "O=C(Nc1cccc(Cl)c1)c1cc([N+](=O)[O-])ccc1O"
  MIC: "> 500 µM"
- querySmiles: "O=C(Nc1cccc([N+](=O)[O-])c1)c1cc([N+](=O)[O-])ccc1O"
  MIC: "> 500 µM"
- querySmiles: "O=C(Nc1cccc(Cl)c1)c1ccc([N+](=O)[O-])cc1O"
  MIC: "> 500 µM"
- querySmiles: "O=C(Nc1cc(C(F)(F)F)cc(C(F)(F)F)c1)c1ccc([N+](=O)[O-])cc1O"
  MIC: "> 500 µM"
- querySmiles: "O=C(Nc1ccc(C(F)(F)F)cc1)c1ccc([N+](=O)[O-])cc1O"
  MIC: "500 µM"
- querySmiles: "O=C(Nc1cc(C(F)(F)F)cc(C(F)(F)F)c1)c1cc([N+](=O)[O-])ccc1O"
  MIC: "> 500 µM"
- querySmiles: "O=C(Nc1ccc([N+](=O)[O-])c(C(F)(F)F)c1)c1ccc([N+](=O)[O-])cc1O"
  MIC: "> 500 µM"
- querySmiles: "O=C(Nc1ccc(Cl)c(Cl)c1)c1cc([N+](=O)[O-])ccc1O"
  MIC: "> 500 µM"
- querySmiles: "O=C(Nc1cccc([N+](=O)[O-])c1)c1ccc([N+](=O)[O-])cc1O"
  MIC: "> 250 µM"
- querySmiles: "O=C(Nc1cccc(F)c1)c1cc([N+](=O)[O-])ccc1O"
  MIC: "> 500 µM"
- querySmiles: "O=C(Nc1ccc([N+](=O)[O-])cc1)c1ccc([N+](=O)[O-])cc1O"
  MIC: "> 500 µM"
- querySmiles: "O=C(Nc1cccc(I)c1)c1cc([N+](=O)[O-])ccc1O"
  MIC: "> 500 µM"
- querySmiles: "O=C(Nc1cccc(I)c1)c1ccc([N+](=O)[O-])cc1O"
  MIC: "> 500 µM"
- querySmiles: "O=C(Nc1cccc(F)c1)c1ccc([N+](=O)[O-])cc1O"
  MIC: "250 µM"
- querySmiles: "O=C(Nc1cccc(Br)c1)c1ccc([N+](=O)[O-])cc1O"
  MIC: "> 500 µM"
- querySmiles: "O=C(Nc1cccc(C(F)(F)F)c1)c1ccc([N+](=O)[O-])cc1O"
  MIC: "500 µM"
- querySmiles: "CC1(C)S[C@@H]2[C@H](NC(=O)Cc3ccccc3)C(=O)N2[C@H]1C(=O)O"
  MIC: "125 µM"
- querySmiles: "O=C(Nc1cccc(Br)c1)c1cc([N+](=O)[O-])ccc1O"
  MIC: "> 500 µM"
- querySmiles: "O=C(Nc1ccc(Cl)c(Cl)c1)c1ccc([N+](=O)[O-])cc1O"
  MIC: "> 500 µM"
- querySmiles: "O=C(Nc1ccc(C(F)(F)F)cc1)c1cc([N+](=O)[O-])ccc1O"
  MIC: "> 500 µM"

====

System: Mycobacterium kansasii
Assay: Antimycobacterial activity against Mycobacterium kansasii 6509/96 after 7 days
Format: functional
Conditions: 6509/96, 168 h

- querySmiles: "O=C(Nc1cccc(Cl)c1)c1cc([N+](=O)[O-])ccc1O"
  MIC: "32 µM"
- querySmiles: "O=C(Nc1ccc(Cl)c(Cl)c1)c1cc([N+](=O)[O-])ccc1O"
  MIC: "32 µM"
- querySmiles: "O=C(Nc1cccc(I)c1)c1ccc([N+](=O)[O-])cc1O"
  MIC: "16 µM"
- querySmiles: "O=C(Nc1cc(C(F)(F)F)cc(C(F)(F)F)c1)c1ccc([N+](=O)[O-])cc1O"
  MIC: "16 µM"
- querySmiles: "O=C(Nc1cccc(Br)c1)c1ccc([N+](=O)[O-])cc1O"
  MIC: "16 µM"
- querySmiles: "O=C(Nc1ccc([N+](=O)[O-])cc1)c1cc([N+](=O)[O-])ccc1O"
  MIC: "62.5 µM"
- querySmiles: "O=C(Nc1cccc([N+](=O)[O-])c1)c1cccc([N+](=O)[O-])c1O"
  MIC: "62.5 µM"
- querySmiles: "O=C(Nc1ccc([N+](=O)[O-])cc1)c1cccc([N+](=O)[O-])c1O"
  MIC: "62.5 µM"
- querySmiles: "O=C(Nc1ccc(C(F)(F)F)cc1)c1cccc([N+](=O)[O-])c1O"
  MIC: "62.5 µM"
- querySmiles: "O=C(Nc1cccc(F)c1)c1ccc([N+](=O)[O-])cc1O"
  MIC: "16 µM"

====

List of MIC values.
Test system: Nakaseomyces glabratus
Assay: Antifungal activity against Candida glabrata 20/I after 48 hrs by microdilution broth method
Assay type: functional

- compound: "O=C(Nc1cccc(I)c1)c1ccc([N+](=O)[O-])cc1O"
  MIC: "> 500 µM"
- compound: "OC(Cn1cncn1)(Cn1cncn1)c1ccc(F)cc1F [FLUCONAZOLE]"
  MIC: "500 µM"
- compound: "O=C(Nc1ccc([N+](=O)[O-])cc1)c1ccc([N+](=O)[O-])cc1O"
  MIC: "> 500 µM"
- compound: "O=C(Nc1cc(C(F)(F)F)cc(C(F)(F)F)c1)c1ccc([N+](=O)[O-])cc1O"
  MIC: "> 500 µM"
- compound: "O=C(Nc1cccc(Br)c1)c1cc([N+](=O)[O-])ccc1O"
  MIC: "> 500 µM"
- compound: "O=C(Nc1cccc(Br)c1)c1ccc([N+](=O)[O-])cc1O"
  MIC: "> 500 µM"
- compound: "O=C(Nc1cccc([N+](=O)[O-])c1)c1ccc([N+](=O)[O-])cc1O"
  MIC: "> 250 µM"
- compound: "O=C(Nc1ccc([N+](=O)[O-])c(C(F)(F)F)c1)c1cc([N+](=O)[O-])ccc1O"
  MIC: "> 500 µM"
- compound: "O=C(Nc1ccc(C(F)(F)F)cc1)c1ccc([N+](=O)[O-])cc1O"
  MIC: "250 µM"
- compound: "O=C(Nc1cccc(I)c1)c1cc([N+](=O)[O-])ccc1O"
  MIC: "500 µM"
- compound: "O=C(Nc1cccc(F)c1)c1ccc([N+](=O)[O-])cc1O"
  MIC: "> 500 µM"
- compound: "O=C(Nc1ccc([N+](=O)[O-])cc1)c1cc([N+](=O)[O-])ccc1O"
  MIC: "> 500 µM"
- compound: "O=C(Nc1ccc(Cl)c(Cl)c1)c1ccc([N+](=O)[O-])cc1O"
  MIC: "62.5 µM"
- compound: "O=C(Nc1cccc(C(F)(F)F)c1)c1cc([N+](=O)[O-])ccc1O"
  MIC: "> 500 µM"
- compound: "O=C(Nc1ccc(Cl)c(Cl)c1)c1cc([N+](=O)[O-])ccc1O"
  MIC: "> 500 µM"
- compound: "O=C(Nc1ccc(C(F)(F)F)cc1)c1cc([N+](=O)[O-])ccc1O"
  MIC: "> 500 µM"
- compound: "O=C(Nc1cccc(F)c1)c1cc([N+](=O)[O-])ccc1O"
  MIC: "> 500 µM"
- compound: "O=C(Nc1cccc(Cl)c1)c1cc([N+](=O)[O-])ccc1O"
  MIC: "> 500 µM"
